Test: decreased DLD-1 cellular survival, CellTiter-Glo luminescent readout, NPC compound collection, primary HTS (AID 1117346)
Settings: DLD-1 viability, CellTiter-Glo luminescence; at 20 µM (top of the series)
property: viability decrease (inhibition) (%)

# compound, units_text, reported_measurement
records = [
    ("C[C@H]1O[C@@H](O[C@H]2[C@@H](O)C[C@H](O[C@H]3[C@@H](O)C[C@H](O[C@H]4CC[C@@]5(C)[C@H](CC[C@@H]6[C@@H]5CC[C@]5(C)[C@@H](C7=CC(=O)OC7)CC[C@]65O)C4)O[C@@H]3C)O[C@@H]2C)C[C@H](O)[C@@H]1O", "%", 84.5),
    ("CC(C)=C[C@@H]1[C@@H](C(=O)OCc2coc(Cc3ccccc3)c2)C1(C)C", "%", 23.4),
    ("CCNc1nc(Cl)nc(NCC)n1", "%", -16.6),
    ("CCOP(=S)(OCC)Oc1ccc2c(C)c(Cl)c(=O)oc2c1", "%", -8.8),
    ("CCCC[N+]1(C)[C@@H]2CC(OC(=O)[C@H](CO)c3ccccc3)C[C@H]1[C@@H]1O[C@@H]12 (some centres undefined)", "%", -1.4),
    ("C=C(C)[C@H]1CN[C@H](C(=O)O)[C@H]1CC(=O)O", "%", -1.8),
    ("CCOC(=O)NC(C)(C)Cc1ccc(Cl)cc1", "%", 3.85),
    ("CC(C)NCC(O)c1ccccc1Cl (centres undefined)", "%", 9),
    ("Oc1cccc2cccnc12", "%", 53.9),
    ("COC(C)(C)CCCC(C)C/C=C/C(C)=C/C(=O)OC(C)C (centres undefined)", "%", 17.2),
    ("N#Cc1nn(-c2c(Cl)cc(C(F)(F)F)cc2Cl)c(N)c1S(=O)C(F)(F)F (centres undefined)", "%", 6.4),
    ("CCC(C)(C)c1ccc(O)cc1", "%", -2.4),
    ("Nc1ccc(Cl)cc1C(=O)c1ccccc1F", "%", 12.8),
    ("Cn1c(CCCC(=O)O)nc2cc(N(CCCl)CCCl)ccc21", "%", -5.7),
    ("CN(C)[C@@H]1C(=O)C(C(N)=O)=C(O)[C@@]2(O)C(=O)C3=C(O)c4c(O)cccc4[C@@](C)(O)[C@H]3[C@H](O)[C@@H]12", "%", 14.3),
    ("CC(=O)O[C@H]1C[C@H](O[C@H]2[C@@H](O)C[C@H](O[C@@H]3[C@@H](O)C[C@H](O[C@H]4CC[C@@]5(C)[C@H](CC[C@@H]6[C@H]5C[C@@H](O)[C@]5(C)[C@@H](C7=CC(=O)OC7)CC[C@]65O)C4)O[C@@H]3C)O[C@@H]2C)O[C@H](C)[C@H]1O[C@@H]1O[C@H](CO)[C@@H](O)[C@H](O)[C@@H]1O", "%", 55.1),
    ("CNC(C)[C@@H](O)c1ccc(O)cc1 (some centres undefined)", "%", 6),
    ("CCCCNCC(O)c1ccc(O)cc1 (centres undefined)", "%", -9.2),
    ("CCCN(CCC)C(=O)Cc1c(-c2ccc(Cl)cc2)nc2ccc(Cl)cn12", "%", 27.1),
    ("CC[C@@H](CO)NC(=O)[C@@H]1C=C2c3cccc4c3c(cn4C)C[C@H]2N(C)C1", "%", 5.6),
    ("CN1C(=O)CCS(=O)(=O)C1c1ccc(Cl)cc1 (centres undefined)", "%", -11.9),
    ("CCC(C(N)=O)N1CCCC1=O (centres undefined)", "%", -1.1),
    ("Clc1ccc(C(OCCN2CCCCC2)c2ccccc2)cc1 (centres undefined)", "%", 26.4),
    ("NNc1ccccc1", "%", 21.2),
    ("Cc1cccc(Cc2cnc[nH]2)c1C", "%", -9.9),
    ("C[N+]1(CCC(C(N)=O)(c2ccccc2)c2ccccc2)CCCCC1", "%", -24.2),
    ("CCCOC(=O)Cc1ccc(OCC(=O)N(CC)CC)c(OC)c1", "%", -4.8),
    ("CCOP(=S)(OCC)Oc1cc(C)nc(C(C)C)n1", "%", 2.6),
    ("C[C@]12C=CC(=O)C=C1CC[C@@H]1[C@@H]2CC[C@@]2(C)[C@H]1CC[C@]2(C)O", "%", 17.9),
    ("NCCC[C@H](N)C(=O)O", "%", 0.35),
    ("O=C(O)c1nn(Cc2ccc(Cl)cc2Cl)c2ccccc12", "%", 3.6),
    ("CN(C)C(=S)SSC(=S)N(C)C", "%", 59.7),
    ("O=C(O)CCCCCCNC1c2ccccc2CCc2ccccc21", "%", -13.1),
    ("CC1Sc2c(C(=O)O)c(=O)c3cc(F)c(N4CCNCC4)cc3n21 (centres undefined)", "%", 40.8),
    ("CCC(COC(=O)c1cc(OC)c(OC)c(OC)c1)(c1ccccc1)N(C)C (centres undefined)", "%", 20.6),
    ("C[C@]12Cc3nonc3C[C@@H]1CC[C@@H]1[C@@H]2CC[C@@]2(C)[C@H]1CC[C@]2(C)O", "%", 61),
    ("c1ccc2c(c1)sc1ccccc12", "%", 3),
    ("COC(=O)C1=CCCN(C)C1", "%", -18.9),
    ("O=C1OC(c2ccc(O)c(S(=O)(=O)O)c2)(c2ccc(O)c(S(=O)(=O)O)c2)c2c(Br)c(Br)c(Br)c(Br)c21", "%", -56.3),
    ("COP(=S)(OC)SCN1C(=O)c2ccccc2C1=O", "%", 24.4),
    ("CC(=O)NC1CCSC1=O (centres undefined)", "%", -3.7),
    ("C=C(C)[C@H]1Cc2c(ccc3c2O[C@@H]2COc4cc(OC)c(OC)cc4[C@@H]2C3=O)O1", "%", 83.4),
    ("COP(=S)(OC)Oc1ccc(S(N)(=O)=O)cc1", "%", -0.7),
    ("CC(C)NCC(O)c1ccc(N)c(C#N)c1 (centres undefined)", "%", 9.6),
]
